The measured values listed here are drawn from PubChem BioAssay (NCI).

Reported growth values for a set of compounds
# Test system: UO-31 renal
# TEST_METHOD_NOTES: NCI-60 one-dose screen, 48 h (100 = growth as untreated, 0 = no growth, -100 = all killed)
# ASSAY_SETUP: 10 µM unless noted
The panel holds about 83,000 compounds, 20% with a hit somewhere; the sample as a whole holds those more often.
Field format: number, assumed %, no unit text.

Some compounds with recorded growth:
compound=COc1cc(OC)c(/C=C/S(=O)(=O)Cc2cnc(OC)c(N)c2)c(OC)c1 test_result=25.5
compound=CC[C@H](CO)Nc1nc(NCc2ccccc2)n2ncc(C(C)C)c2n1 test_result=10
compound="CCN(CC)CC(C)Nc1ccc([N+](=O)[O-])c2sc3ccccc3c(=O)c12 (stereo not given)" test_result=0.595
compound=COc1ccc(C(=O)/C=C/c2c(Cl)c3c(c(OC)c2Cl)OCC(=O)N3)cc1 test_result=56.7
compound=C#Cc1nc2ccccc2c(=O)[nH]1 test_result=-72
compound=O=C1c2cccnc2C(=O)c2c1c(C(=O)OCCN1CCOCC1)c1ccccn21 test_result=-26.7
compound=CCCCNP1(NCCCC)=NP(NCCCC)(NCCCC)=NP(NCCCC)(NCCCC)=NP(NCCCC)(NCCCC)=N1 test_result=37.6
compound=CCOC(=O)c1ccc2c(c1)nc(/C=C/c1ccc(Cl)cc1)n2-c1cc(C(C)(C)C)[nH]n1 test_result=46.8

Response field growth (UO-31 renal) for item COc1ncc(-c2ccc3ncnc(Nc4cccc(Cl)c4)c3c2)cc1NS(C)(=O)=O : 8.8

Param item: O=C1Nc2ccccc2C12CC(c1ccc(Cl)cc1)=NN2 (stereo not given) ; param system: UO-31 renal; output growth: 69.2
